# key: entry, value: LD50 at 24 h
# testDescription: Acute toxicity on mice
# Assay type: in vivo
# reportedConditions: mouse, in vivo, ip, 24 hours after administration; read-out: Estimated LD50

The following compounds have reported results that may help.
- compound: "CN(C(=O)C1CCCCC1)c1ccnc(N2CCC(c3ccccc3)CC2)n1"
  LD50 at 24 h: "> 1000 mg/kg"
- compound: "CN(C(=O)c1ccccc1)c1ccnc(N2CCN(c3ccccc3)CC2)n1"
  LD50 at 24 h: "> 1000 mg/kg"
- compound: "CC(C)C1CCN(c2nccc(N(C)C(=O)c3ccccc3)n2)CC1"
  LD50 at 24 h: "> 1000 mg/kg"
- compound: "CN1CCN(c2nccc(N(C)C(=O)c3ccccc3)n2)CC1"
  LD50 at 24 h: "500 to 1000 mg/kg"
- compound: "CN(C(=O)c1ccccc1)c1ccnc(N2CCC(C(C)(C)C)CC2)n1"
  LD50 at 24 h: "> 1000 mg/kg"
- compound: "CN(C(=O)c1ccccc1)c1ccnc(N2CCC(OS(=O)(=O)c3ccccc3)CC2)n1"
  LD50 at 24 h: "500 to 1000 mg/kg"

LD50 at 24 h for O=C(Nc1ccnc(N2CCC(c3ccccc3)CC2)n1)c1ccccc1 is > 1000 mg/kg

Just so you know, measured LD50 at 24 h for CN(C(=O)c1ccccc1)c1ccnc(N2CCC(Cc3ccccc3)CC2)n1 came out at > 1000 mg/kg

// recorded LD50 at 24 h for CN(C(=O)c1ccccc1)c1ccnc(N2CCN(Cc3ccccc3)CC2)n1 : 500 to 1000 mg/kg

The reported LD50 at 24 h of the compound CC1CCCN(c2nccc(N(C)C(=O)c3ccccc3)n2)C1 (stereo not drawn) was > 1000 mg/kg

Memo: CN(C)c1nccc(N(C)C(=O)c2ccccc2)n1 , reported LD50 at 24 h: 500 to 1000 mg/kg

Entry CCCC1CCN(c2nccc(N(C)C(=O)c3ccccc3)n2)CC1 ; LD50 at 24 h = > 1000 mg/kg

CC(=O)N(C)c1ccnc(N2CCCc3ccccc32)n1 has a reported LD50 at 24 h of > 1000 mg/kg

Looking up CCOC(=O)N(C)c1ccnc(N2CCC(c3ccccc3)CC2)n1 , I see its LD50 at 24 h listed as 500 to 1000 mg/kg

Measured LD50 at 24 h of CN(C(=O)c1ccc(Cl)cc1)c1ccnc(N2CCC(c3ccccc3)CC2)n1 : > 1000 mg/kg

LD50 at 24 h recorded for this compound, CCN(C(=O)c1ccccc1)c1ccnc(N2CCC(c3ccccc3)CC2)n1 , is > 1000 mg/kg

Memo: CC(=O)N(C)c1cc(C)nc(N2CCC(c3ccccc3)CC2)n1 , reported LD50 at 24 h: 500 to 1000 mg/kg

Input CCOc1ccc(C(=O)N(C)c2ccnc(N3CCC(c4ccccc4)CC3)n2)cc1 . Output LD50 at 24 h: > 1000 mg/kg

Field LD50 at 24 h (entry CN(C(=O)c1ccccc1)c1ccnc(NC2CN3CCC2CC3)n1 (stereo not drawn) ) reads 500 to 1000 mg/kg

Record CN1C(=O)Cc2cnc(N3CCN(C(c4ccccc4)c4ccccn4)CC3)nc21 (stereo not drawn) , field LD50 at 24 h: 500 to 1000 mg/kg

Consider COc1cc(C(=O)N(C)c2ccnc(N3CCC(c4ccccc4)CC3)n2)cc(OC)c1OC . Its measured LD50 at 24 h is 500 to 1000 mg/kg

Documented LD50 at 24 h of CN(C(=O)c1ccc(-c2ccccc2)cc1)c1ccnc(N2CCC(c3ccccc3)CC2)n1 : 500 to 1000 mg/kg

Just so you know, measured LD50 at 24 h for CC1CCN(c2ccnc(N(C)C(=O)c3ccccc3)n2)CC1 came out at 500 to 1000 mg/kg

Sure, the documented LD50 at 24 h for CC(=O)N(C)c1ccnc(N2CCc3ccccc3C2)n1 is > 1000 mg/kg

GET /value?item= CN1C(=O)Cc2cnc(N3CCN(C(c4ccc(F)cc4)c4ccc(F)cc4)CC3)nc21 &field=LD50 at 24 h returns 500 to 1000 mg/kg

So, CN(C(=O)c1ccccc1)c1ccnc(N2CCCC3CCCCC32)n1 (stereo not drawn) ? Its LD50 at 24 h was > 1000 mg/kg

Please fill in: LD50 at 24 h reported for CN(C(=O)c1ccccc1)c1ccnc(N2CCCc3ccccc32)n1 = > 1000 mg/kg

Lab book: LD50 at 24 h of CN(C(=O)c1ccccc1)c1nccc(N2CCC(c3ccccc3)CC2)n1 noted as 500 to 1000 mg/kg

Short answer for CON(C(=O)c1ccccc1)c1ccnc(N2CCC(c3ccccc3)CC2)n1 : LD50 at 24 h was 500 to 1000 mg/kg

The compound listed as O=C(c1ccccc1)N(Cc1ccccc1)c1ccnc(N2CCC(c3ccccc3)CC2)n1 shows LD50 at 24 h equal to 500 to 1000 mg/kg
